target: hFASN enzyme (full length) (Homo sapiens, UniProt P49327)
Sequence (P49327 whole entry): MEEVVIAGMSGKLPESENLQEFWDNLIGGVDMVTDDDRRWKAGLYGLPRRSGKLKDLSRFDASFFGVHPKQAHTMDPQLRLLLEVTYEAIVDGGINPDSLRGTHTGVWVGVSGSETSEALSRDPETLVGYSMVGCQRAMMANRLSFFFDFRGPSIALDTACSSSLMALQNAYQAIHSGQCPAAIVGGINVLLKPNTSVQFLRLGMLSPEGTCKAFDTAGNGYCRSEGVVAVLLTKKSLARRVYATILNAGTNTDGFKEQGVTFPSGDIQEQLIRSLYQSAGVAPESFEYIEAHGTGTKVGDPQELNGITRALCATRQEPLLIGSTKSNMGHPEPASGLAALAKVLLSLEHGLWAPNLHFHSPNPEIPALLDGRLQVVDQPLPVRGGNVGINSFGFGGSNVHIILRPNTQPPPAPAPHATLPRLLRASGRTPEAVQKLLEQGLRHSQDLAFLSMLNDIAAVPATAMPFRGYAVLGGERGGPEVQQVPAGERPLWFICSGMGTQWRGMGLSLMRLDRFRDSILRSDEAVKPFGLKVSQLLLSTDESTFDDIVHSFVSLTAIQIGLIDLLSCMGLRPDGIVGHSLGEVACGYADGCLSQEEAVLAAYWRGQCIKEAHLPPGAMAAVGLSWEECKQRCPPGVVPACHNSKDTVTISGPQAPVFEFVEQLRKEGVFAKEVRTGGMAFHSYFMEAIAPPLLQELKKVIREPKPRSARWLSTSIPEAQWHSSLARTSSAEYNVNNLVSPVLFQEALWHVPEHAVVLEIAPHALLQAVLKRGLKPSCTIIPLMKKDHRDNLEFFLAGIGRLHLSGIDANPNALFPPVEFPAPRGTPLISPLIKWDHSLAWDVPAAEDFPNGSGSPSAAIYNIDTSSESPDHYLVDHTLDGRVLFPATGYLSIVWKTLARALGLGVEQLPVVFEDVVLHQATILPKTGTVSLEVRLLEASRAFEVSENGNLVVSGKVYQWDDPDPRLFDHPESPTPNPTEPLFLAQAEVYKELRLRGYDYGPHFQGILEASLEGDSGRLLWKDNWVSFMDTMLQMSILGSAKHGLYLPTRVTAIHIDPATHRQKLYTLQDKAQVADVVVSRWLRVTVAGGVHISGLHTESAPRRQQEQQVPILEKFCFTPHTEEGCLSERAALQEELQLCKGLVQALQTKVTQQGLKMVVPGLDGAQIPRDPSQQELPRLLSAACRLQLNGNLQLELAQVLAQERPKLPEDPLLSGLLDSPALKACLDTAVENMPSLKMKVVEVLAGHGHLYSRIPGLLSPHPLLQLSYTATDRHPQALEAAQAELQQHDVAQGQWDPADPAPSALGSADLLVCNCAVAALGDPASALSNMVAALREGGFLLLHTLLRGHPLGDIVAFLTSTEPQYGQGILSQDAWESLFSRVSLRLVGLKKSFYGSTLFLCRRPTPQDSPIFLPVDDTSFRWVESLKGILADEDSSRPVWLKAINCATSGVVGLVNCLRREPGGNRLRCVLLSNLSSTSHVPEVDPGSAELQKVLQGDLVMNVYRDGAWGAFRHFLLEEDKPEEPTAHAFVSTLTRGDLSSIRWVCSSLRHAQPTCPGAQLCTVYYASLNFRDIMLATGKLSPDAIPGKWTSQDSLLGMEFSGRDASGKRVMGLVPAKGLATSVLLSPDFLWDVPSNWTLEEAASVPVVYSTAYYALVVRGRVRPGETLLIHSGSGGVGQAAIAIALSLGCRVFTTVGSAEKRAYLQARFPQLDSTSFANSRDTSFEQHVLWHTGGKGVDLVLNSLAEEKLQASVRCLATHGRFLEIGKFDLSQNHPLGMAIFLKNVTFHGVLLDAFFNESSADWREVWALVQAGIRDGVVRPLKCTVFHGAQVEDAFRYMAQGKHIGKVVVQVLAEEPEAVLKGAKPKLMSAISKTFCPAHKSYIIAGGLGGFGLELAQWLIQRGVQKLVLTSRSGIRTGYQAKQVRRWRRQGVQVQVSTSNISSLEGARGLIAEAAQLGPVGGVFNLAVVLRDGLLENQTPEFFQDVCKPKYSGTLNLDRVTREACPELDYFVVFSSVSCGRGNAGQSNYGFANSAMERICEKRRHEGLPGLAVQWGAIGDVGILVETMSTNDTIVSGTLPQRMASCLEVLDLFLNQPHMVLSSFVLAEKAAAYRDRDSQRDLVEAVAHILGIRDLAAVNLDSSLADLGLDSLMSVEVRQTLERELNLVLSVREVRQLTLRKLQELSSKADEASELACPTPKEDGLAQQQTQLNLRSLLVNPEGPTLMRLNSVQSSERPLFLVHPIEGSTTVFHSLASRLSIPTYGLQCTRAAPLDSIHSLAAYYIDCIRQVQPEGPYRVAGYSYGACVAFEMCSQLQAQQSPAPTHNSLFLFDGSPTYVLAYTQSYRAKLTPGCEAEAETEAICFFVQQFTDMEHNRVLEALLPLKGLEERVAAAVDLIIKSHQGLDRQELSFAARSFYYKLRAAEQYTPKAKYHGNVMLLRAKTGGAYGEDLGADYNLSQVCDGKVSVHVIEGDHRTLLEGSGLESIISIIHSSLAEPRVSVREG
Property: IC50; scope: individual molecules
The reply should contain only the number, in µM.

molecule | assayed target | uom | IC50
Cc1ccc(C(=O)N2CCC(c3ccc(-c4cnn(C)c4)cc3)CC2)cc1NC(=O)C1CCN(CC(C)C)CC1 | hFASN enzyme (full length) (Homo sapiens, UniProt P49327) | µM | 0.0263
Cc1ccc(C(=O)N2CCC(c3ccc(-c4cnn(C)c4)cc3)CC2)cc1NC(=O)c1cnc(N(C)C(C)C)nc1 | hFASN enzyme (full length) (Homo sapiens, UniProt P49327) | µM | 0.024
Cc1ccc(C(=O)N2CC(c3ccc(-c4cnn(C)c4)cc3)C2)cc1NC(=O)c1cccs1 | hFASN enzyme (full length) (Homo sapiens, UniProt P49327) | µM | 0.0372
Cc1ccc(C(=O)N2CCC(c3ccc(-c4cnn(C)c4)cc3)CC2)cc1NC(=O)c1nccn1C | hFASN enzyme (full length) (Homo sapiens, UniProt P49327) | µM | 2.45

Sure, the documented IC50 for `CC(C)Nc1ccc(C(=O)Nc2cc(C(=O)N3CCC(c4ccc(-c5cnn(C)c5)cc4)CC3)ccc2N(C)C)cn1` is 0.0708

Lab note: measured IC50 of `Cc1ccc(C(=O)N2CCC(c3ccc(-c4cnn(C)c4)nc3)CC2)cc1NC(=O)c1ccc(NC(C)C)nc1` was 0.166

The reported value for `Cc1ccc(C(=O)N2CCC(c3ncc(-c4cnn(C)c4)cn3)CC2)cc1NC(=O)c1ccc(NC(C)C)nc1` in terms of IC50 is 0.245

// recorded IC50 for `Cc1ccc(C(=O)N2CCC(c3ccc(-c4cnn(C)c4)cc3)CC2)cc1NC(=O)c1cnc(N2CCOCC2)nc1` : 0.0219

Record summary for `Cc1ccc(C(=O)N2CCC(c3ccc(-c4cnn(C)c4)nc3)CC2)cc1NC(=O)c1ccc(Cl)nc1` : reported IC50 = 0.589

Record Cc1ccc(C(=O)N2CC[C@H](c3ccc(-c4ccnn4C)cc3)[C@H](C)C2)cc1NC(=O)c1ccc(NC(C)C)nc1 (racemic) . Reported IC50: 0.631

Recorded result, `CCCCN1CCC(C(=O)Nc2cc(C(=O)N3CCC(c4ccc(-c5cnn(C)c5)cc4)CC3)ccc2C)CC1` , IC50: 0.0316

Record `Cc1ccc(C(=O)N2CC(c3ccc(-c4ccc5cnn(C)c5c4)cc3)C2)cc1NC(=O)c1ccc(NC(C)C)nc1` . Reported IC50: 0.0437

The value of IC50 measured for the molecule `CC(C)Nc1ccc(C(=O)Nc2cc(C(=O)N3CCC(c4ccc(-c5cnn(C)c5)cc4)CC3)ccc2N(C)C(C)C)cn1` turned out to be 0.372

Form: molecule = CCCCN1CCC(C(=O)Nc2cc(C(=O)N3CCC(c4ccc(-c5cnn(C)c5)cc4)CC3)ccc2C)C1 (centres unmarked) ; IC50 = 0.12

---

The entries below come with measured inhibition at 10 µM values attached.
molecular target: hFASN enzyme (full length) (Homo sapiens, UniProt P49327); construct: 10 μL hFASN enzyme (full length, 300 ng, purified in house); made in house; assay: Fatty Acid Synthase (FASN) Inhibition Scintillation Proximity Assay; assay type: biochemical; settings: read-out: FASN % Effect @1E−05M
The reply should consist of the numeric value with the unit placed after it.

input smiles | assayed target | measurement
Cc1ccc(C(=O)N2CCC(c3ccc(-c4cnn(C)c4)cc3)CC2)cc1NC(=O)C1CN(CC(C)(C)C)C1 | hFASN enzyme (full length) (Homo sapiens, UniProt P49327) | 102%
Cc1ccc(C(=O)N2CCC(c3ccc(-c4ccccc4F)cc3)CC2)cc1NC(=O)c1ccc(NC(C)C)nc1 | hFASN enzyme (full length) (Homo sapiens, UniProt P49327) | 92%
Cc1ccc(C(=O)N2CCC(c3ccc(-c4cnn(C)c4)cc3)CC2)cc1NC(=O)c1cccc(Cl)c1 | hFASN enzyme (full length) (Homo sapiens, UniProt P49327) | 105%
Cc1ccc(C(=O)N2CC(c3ccc(-c4cnn(C)c4)cc3)C2)cc1NC(=O)C1CCC1 | hFASN enzyme (full length) (Homo sapiens, UniProt P49327) | 114%
Cc1ccc(C(=O)N2CCC(c3ccc(-c4cnn(C)c4)cc3)CC2)cc1NC(=O)c1cnc(NC2CCC2)nc1 | hFASN enzyme (full length) (Homo sapiens, UniProt P49327) | 101%

Entry `Cc1ccc(C(=O)N2CC(c3ccc(-c4ccncc4)cc3)C2)cc1NC(=O)c1ccc(NC(C)C)nc1` ; inhibition at 10 µM = 104%

Form: compound = `CCc1ccc(C(=O)N2CCC(c3ccc(-c4cnn(C)c4)cc3)CC2)cc1NC(=O)c1ccc(NC(C)C)nc1` ; inhibition at 10 µM = 116%

---

test system: A2780 ovarian cells; assay: A2780 Ovarian Cell Proliferation Assay in Lipid Reduced Medium, without Palmitate; format: cell-based; settings: Homo sapiens, A2780; lipid reduced medium, without palmitate, 96 h, MTT; read-out: Proliferation A2780 w/o Palmitate pIC50 (converted)
Listing: IC50 of selected molecules
I only need the number, in nM, no unit after it.

Example molecules with recorded IC50:
molecule | IC50, nM
Cc1ccc(C(=O)N2CCC(c3ccc(-c4cnn(C)c4C)cc3)CC2)cc1NC(=O)c1ccc(NC(C)C)nc1 | 112
Cc1ccc(C(=O)N2CCC(c3ccc(-c4cnn(C)c4)cc3)CC2)cc1NC(=O)c1cccnc1Cl | 91.2
CCCCCCN1CCC(C(=O)Nc2cc(C(=O)N3CCC(c4ccc(-c5cnn(C)c5)cc4)CC3)ccc2C)CC1 | 43.7

Lab note: `Cc1ccc(C(=O)N2CC(c3ccc(-c4cnn(C)c4)cc3)C2)cc1NC(=O)c1cnc(NC(C)C)nc1` gave IC50 of 10

The molecule identified as CCCCC(C)N1CCC(C(=O)Nc2cc(C(=O)N3CCC(c4ccc(-c5cnn(C)c5)cc4)CC3)ccc2C)CC1 (stereo not shown) registered its IC50 at 38.9

The measured IC50 associated with `Cc1ccc(C(=O)N2CCC(c3ccc(-c4cnn(C)c4)cc3)CC2)cc1NC(=O)C1CN(CC(C)C)C1` reads 110

Measured IC50 of `CC(C)Nc1ccc(C(=O)Nc2cc(C(=O)N3CC(c4ccc(-c5ccc6cnccc6c5)cc4)C3)ccc2Cl)cn1` : 135

---

molecular target: FASN Keto-reductase Domain (Homo sapiens); construct: 10 μL hFASN enzyme (full length, 300 ng, purified in house) and 360 μM NADPH; made in house; experiment: Fatty Acid Synthase Keto-Reductase Domain (FASN KR) Inhibition; type: biochemical; settings: mean where tested more than once; read-out: FASN K-R Domain pIC50 (converted)
Reported values of IC50 for individual entries
Give just the number in nM; leave the unit off.

Query CCCCC(C)N1CC(C(=O)Nc2cc(C(=O)N3CCC(c4ccc(-c5cnn(C)c5)cc4)CC3)ccc2C)C1 (stereo not shown) on FASN Keto-reductase Domain (Homo sapiens); IC50 returned: 282

The measured IC50 that `CC(C)Nc1ccc(C(=O)Nc2cc(C(=O)N3CCC(c4ccc(-c5cnn(C)c5)cc4)CC3)ccc2NC2CC2)cn1` showed for FASN Keto-reductase Domain (Homo sapiens) is 631

---

target: FASN Keto-reductase Domain (Homo sapiens, UniProt P49327); construct: 10 μL hFASN enzyme (full length, 300 ng, purified in house) and 360 μM NADPH; made in house; assay: Fatty Acid Synthase Keto-Reductase Domain (FASN KR) Inhibition; type: biochemical; conditions: mean where tested more than once; read-out: FASN K-R Domain pIC50 (converted)
Sequence (P49327 whole entry, the tested form may be a part): as the sequence (P49327 whole entry) above
Threshold-based label: IC50 under 200 nM gives Condition met, IC50 not under 200 nM gives Condition not met.

molecule | qualitative label
Cc1ccc(C(=O)N2CC(c3ccc(-c4ccncc4N)cc3)C2)cc1NC(=O)c1ccc(Cl)nc1 | Condition met
Cc1ccc(C(=O)N2CCC(c3ccc4[nH]c(=O)sc4c3)CC2)cc1NC(=O)c1ccc(NC(C)C)nc1 | Condition not met
Cc1ccc(C(=O)N2CCC(c3ccc(-n4ccnc4)cc3)C(C)(C)C2)cc1NC(=O)c1ccc(NC(C)C)nc1 (stereo not shown) | Condition met
Cc1ccc(C(=O)N2CCC(c3ccc4[nH]c(=O)sc4c3)CC2)cc1NC(=O)c1ccc(Cl)nc1 | Condition not met
CCCCC(C)N1CCC(C(=O)Nc2cc(C(=O)N3CCC(c4ccc(-c5cnn(C)c5)cc4)CC3)ccc2C)CC1 (stereo not shown) | Condition met
Cc1ccc(C(=O)N2CCC(c3ccc(-c4cnn(CC5CC5)c4)cc3)CC2)cc1NC(=O)c1ccc(NC(C)C)nc1 | Condition met

We next turn to a different molecule, shown below.
Record Cc1ccc(C(=O)N2CCC(c3ccc(-c4cnn(C)c4)cc3)C2)cc1NC(=O)c1ccc(N2CCOCC2)nc1 (stereo not shown) : is its IC50 strictly below 200 nM?
Condition not met

---

test: Cytotoxicity in HeLa cells (ATPlite); type: cell-based; settings: human, in parallel to RSV assay, read-out: CC50 (Toxicity HeLa Cells)
value type: CC50 at 3 days

The compound listed as `Cc1ccc(C(=O)N2CCC(c3ccc(-c4cnn(C)c4)cc3)CC2)cc1NC(=O)c1ccc(NC(C)C)nc1` shows CC50 at 3 days equal to > 25 µM
